System: human myeloid cell line KG-1
experiment-notes: Leukemia cell line KG-1 growth curve, alone or with VP-16
Type: cell-based
measurement-parameters: summary table / FIG. 34
readout-kind: KG-1 Leukemia potency

[[record]]
molecule = "CCn1cc(C(=O)O)c(=O)c2cc(F)c(N3CCN(C(=O)c4ccc(OC(C)=O)cc4)CC3)cc21"
measured_result = "Potency in uM"

[[record]]
molecule = "COc1ccc(Cn2c(C)c(CNC(C)c3ccccc3)c(C(=O)O)c2C)cc1 (centres unmarked)"
measured_result = "Potency in uM"

[[record]]
molecule = "Cc1ccc(NCC(=O)Nc2cccc(C(=O)O)c2O)cc1"
measured_result = "Potency in uM"

[[record]]
molecule = "CC(C)n1cc(C(=O)O)c(=O)c2ccccc21"
measured_result = "Potency in uM"


====

Test system: small cell lung cancer cell line CRL5898
experiment-notes: Small cell lung cancer cell line CRL5898 growth, alone or with VP-16
Type: cell-based
measurement-parameters: summary table / FIG. 34
readout-kind: CLR5898 Small Cell Lung Cancer cooperativity with VP-16

[[record]]
compound = "CC(C)n1cc(C(=O)O)c(=O)c2ccccc21"
measured_result = "No or very"

[[record]]
compound = "Cc1ccc(NCC(=O)Nc2cccc(C(=O)O)c2O)cc1"
measured_result = "No or very"

[[record]]
compound = "COc1ccc(Cn2c(C)c(CNC(C)c3ccccc3)c(C(=O)O)c2C)cc1 (stereo not shown)"
measured_result = "No"

[[record]]
compound = "CCn1cc(C(=O)O)c(=O)c2cc(F)c(N3CCN(C(=O)c4ccc(OC(C)=O)cc4)CC3)cc21"
measured_result = "No or very"

